These entries and their values trace back to patent US11420969B2.

# assayTarget: CYP2D6 (Homo sapiens, UniProt P10635)
# Construct: from tissue; host or cells: human liver microsomes
# Sequence (P10635 whole entry): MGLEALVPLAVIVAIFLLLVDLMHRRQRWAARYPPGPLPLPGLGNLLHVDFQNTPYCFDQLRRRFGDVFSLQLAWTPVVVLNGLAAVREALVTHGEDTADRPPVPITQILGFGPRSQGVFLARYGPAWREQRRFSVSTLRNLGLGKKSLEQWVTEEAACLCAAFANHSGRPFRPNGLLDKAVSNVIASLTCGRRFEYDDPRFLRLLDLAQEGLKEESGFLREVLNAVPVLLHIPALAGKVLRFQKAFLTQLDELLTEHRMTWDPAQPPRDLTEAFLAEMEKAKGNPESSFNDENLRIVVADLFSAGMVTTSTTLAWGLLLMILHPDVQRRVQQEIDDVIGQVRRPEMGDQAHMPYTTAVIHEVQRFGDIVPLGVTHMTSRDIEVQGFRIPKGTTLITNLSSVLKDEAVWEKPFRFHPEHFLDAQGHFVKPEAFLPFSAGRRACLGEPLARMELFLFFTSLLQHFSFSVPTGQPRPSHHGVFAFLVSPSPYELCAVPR
# protocolDetails: biochemical
# Type: in vitro ADME
measuredParameter: log10(IC50) (log10 of the value in µM)
Form field - Quantity: IC50; Unit: µM; Scale: log10

# get_value(readout='log10(IC50)', item= CC1(CO)CCN(c2ccc(Cl)cc2NC(=O)c2ccc(C3CCOCC3)o2)CC1 )
1.21

Could you tell me which log10(IC50) is on file for CC1(O)CCN(c2ccc(C3CC3)cc2NC(=O)c2ccc(C3CCOCC3)o2)C1 (racemic) ?
1.38

Request the reported log10(IC50) associated with CC1(O)CCN(c2ccc(C3CC3)cc2NC(=O)c2ccc(-c3ccncc3)o2)CC1
0.68

Give the measured log10(IC50) of CC1(O)CCN(c2ccc(OC(F)(F)F)cc2NC(=O)c2ccc(-c3ccncc3)o2)CC1 .
0.73

Recorded log10(IC50) of O=C(Nc1cc(Cl)ccc1N1CCCC(O)CC1)c1ccc(-c2ccncc2)o1 (racemic) , please.
-0.18

Please look up its log10(IC50): CN1CCC2(CCN(c3ccc(C(F)(F)F)cc3NC(=O)c3ccc(C4CCOCC4)o3)CC2)C1=O
1.14

* * *

# assayTarget: CYP1A2 (Homo sapiens)
# Construct: from tissue; host or cells: human liver microsomes
# Sequence (P05177 1-516): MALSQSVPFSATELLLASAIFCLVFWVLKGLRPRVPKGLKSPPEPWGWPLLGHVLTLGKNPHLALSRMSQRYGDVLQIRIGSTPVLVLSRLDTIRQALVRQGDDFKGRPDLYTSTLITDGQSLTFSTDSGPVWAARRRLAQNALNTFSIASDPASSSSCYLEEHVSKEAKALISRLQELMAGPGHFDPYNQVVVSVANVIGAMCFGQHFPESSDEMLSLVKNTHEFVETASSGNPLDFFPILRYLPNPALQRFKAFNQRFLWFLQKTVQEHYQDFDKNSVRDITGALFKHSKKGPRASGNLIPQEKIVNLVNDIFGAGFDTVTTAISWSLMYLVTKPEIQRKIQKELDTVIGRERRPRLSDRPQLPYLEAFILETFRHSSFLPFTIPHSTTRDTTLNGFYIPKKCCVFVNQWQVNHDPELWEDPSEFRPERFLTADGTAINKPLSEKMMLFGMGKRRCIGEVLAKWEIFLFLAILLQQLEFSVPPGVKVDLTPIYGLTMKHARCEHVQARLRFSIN
# protocolDetails: CYP inhibition assay, human liver microsomes, substrate tacrine
# Assay type: in vitro ADME
# conditionInfo: human liver microsomes, 10 min incubation, LC-MS/MS; read-out: CYP Inhibition Activity (IC50/nM) CYP1A2
measuredParameter: IC50

Fill in the blank: the reported IC50 of CC1(O)CCN(c2ccc(C(F)(F)F)cc2NC(=O)c2ccc(-c3ccncc3)o2)CC1 [Example 4] is ____.
23200 nM

Value lookup for IC50; key = O=C(Nc1cc(C(F)(F)F)ccc1N1CCN(Cc2ccccn2)CC1)c1ccc(-c2ccncc2)o1 [Reference Example 1, reference compound]
> 30000 nM

Query (compound): CC1(C(=O)O)CCN(c2ccc(C(F)(F)F)cc2NC(=O)c2ccc(C3CCOCC3)o2)CC1 [Example 27] ; field requested: IC50
> 30000 nM

Need IC50, item O=C(Nc1cc(C(F)(F)F)ccc1N1CCN(Cc2cc[nH]n2)CC1)c1ccc(C2CCOCC2)o1 [Reference Example 3, reference compound]
> 30000 nM

Give its IC50 value. Item: Cc1ccc(N2CCC(O)(CC3CC3)CC2)c(NC(=O)c2ccc(C3CCOCC3)o2)c1 [Example 70]
> 30000 nM

What value of IC50 has been recorded for this entry: CC1(N)CCN(c2ccc(C(F)(F)F)cc2NC(=O)c2ccc(C3CCOCC3)o2)CC1 [Example 101]
> 30000 nM
